The measurements presented in this section are drawn from the Deep4Chem optical property database.

Assay: solvent given as SMILES
Conditions: in CC#N
Reported absorption maximum values for the following compounds.
Just the number please, in nm, no unit attached.

Look over these answered cases.
INSERT INTO measurements (smiles_text, measured_quantity, quantity_unit, reported_value) VALUES
  ('CCc1s[c+](N2CCCCC2)sc1-c1cc(C)cc(I)c1[O-]', 'absorption maximum', 'nm', 405),
  ('c1cc2ccc1CCCc1cc3c(cc1CCCc1ccc(c4nsnc14)CCC3)CCC2', 'absorption maximum', 'nm', 403);

// absorption maximum lookup, key: c1ccc(-c2c3c(c(-c4ccccc4)c4cc5ccccc5cc24)Cc2c(c(-c4ccccc4)c4cc5ccccc5cc4c2-c2ccccc2)C3)cc1 389
